Biological target: human full-length VWF (human, UniProt P04275 764-2813)
Assay: SPR, Biacore T200, antibody captured on Protein A, full-length VWF as analyte, single-cycle kinetics
ENDPOINT: pKd
Notebook: values listed as pKd are -log10 of the concentration (mol/L).

- 1-A2_VH-par_L0 (antibody, human IgG1, kappa, V domains shown, also called 1-A2_L0 (hIgG1K)) VH: SQSVEESGGRLVPPGTPLTLTCTVSGIDLTSNAMNWVRQAPGKGLEWIGGIYGHDTSYYAAWAKGRFTISRTSTTVDLKMTRPTTDDTATYFCARGFIYFDIWGTGTLVTISS VL: DIQMTQSPSSLSASVGDRVTITCLASEDIYSGISWYQQKPGKAPKLLIYGASNLESGVPSRFSGSGSGTDFTLTISSLQPEDFATYYCLGGHSHSTTDLTFGGGTKVEIKT: 10.90
- 1-A2_H0_L0 (antibody, human IgG1, kappa, V domains shown, humanised, human IgG1 kappa) VH: QVQLVESGGGVVQPGRSLRLSCAASGFTFSSNAMNWVRQAPGKGLEWVAGIYGHDTSYYAAWAKGRFTISRDNSKNTLYLQMNSLRAEDTAVYYCARGFIYFDIWGQGTLVTVSS VL: DIQMTQSPSSLSASVGDRVTITCLASEDIYSGISWYQQKPGKAPKLLIYGASNLESGVPSRFSGSGSGTDFTLTISSLQPEDFATYYCLGGHSHSTTDLTFGGGTKVEIKT: 12.64

Task: GET /values?readout=pKd&item= 4-H3_H8_VL-par (antibody, human IgG1, kappa, V domains shown, also called 4-H3_H8 (hIgG1)) VH: QQLVESGGGVVQPGRSLRLSCAASGIDLTSNAMNWVRQAPGKGLEWIGGIYGHDTSYYAAWAKGRFTISRDSNTVYLQMNSLRAEDTATYFCARGFIYFDIWGQGTLVTVSS VL: AYDMTQTPPSLSASVGETVRIRCLASEDIASGISWYQQKPGKPPTLLIYGASNLESGVPPRFSGSGSGTDYTLTIGGVQAEDAATYYCLGGYSFSSNGLTFGAGTKVEIKT
Output: 10.96

Task: GET /values?readout=pKd&item= 1-A2_H1_L0 (antibody, human IgG1, kappa, V domains shown, humanised, human IgG1 kappa) VH: QVQLVESGGGVVQPGRSLRLSCAASGIDLTSNAMNWVRQAPGKGLEWVAGIYGHDTSYYAAWAKGRFTISRDNSKNTLYLQMNSLRAEDTAVYYCARGFIYFDIWGQGTLVTVSS VL: DIQMTQSPSSLSASVGDRVTITCLASEDIYSGISWYQQKPGKAPKLLIYGASNLESGVPSRFSGSGSGTDFTLTISSLQPEDFATYYCLGGHSHSTTDLTFGGGTKVEIKT
Output: 10.73

Task: GET /values?readout=pKd&item= 1-A2_H2_L0 (antibody, human IgG1, kappa, V domains shown, humanised, human IgG1 kappa) VH: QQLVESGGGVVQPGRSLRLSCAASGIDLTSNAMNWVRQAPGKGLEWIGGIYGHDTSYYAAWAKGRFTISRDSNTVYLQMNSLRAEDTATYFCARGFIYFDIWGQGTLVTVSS VL: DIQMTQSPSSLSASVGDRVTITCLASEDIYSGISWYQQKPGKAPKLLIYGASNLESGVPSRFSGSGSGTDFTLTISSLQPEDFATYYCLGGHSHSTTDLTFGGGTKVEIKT
Output: 10.01
